Just for reference, paper PMC4336329 is where these values come from.

- experimentalSystem: human ether-à-go-go-related gene (hERG) potassium channel (human)
- Sequence (Q12809 whole entry, looked up): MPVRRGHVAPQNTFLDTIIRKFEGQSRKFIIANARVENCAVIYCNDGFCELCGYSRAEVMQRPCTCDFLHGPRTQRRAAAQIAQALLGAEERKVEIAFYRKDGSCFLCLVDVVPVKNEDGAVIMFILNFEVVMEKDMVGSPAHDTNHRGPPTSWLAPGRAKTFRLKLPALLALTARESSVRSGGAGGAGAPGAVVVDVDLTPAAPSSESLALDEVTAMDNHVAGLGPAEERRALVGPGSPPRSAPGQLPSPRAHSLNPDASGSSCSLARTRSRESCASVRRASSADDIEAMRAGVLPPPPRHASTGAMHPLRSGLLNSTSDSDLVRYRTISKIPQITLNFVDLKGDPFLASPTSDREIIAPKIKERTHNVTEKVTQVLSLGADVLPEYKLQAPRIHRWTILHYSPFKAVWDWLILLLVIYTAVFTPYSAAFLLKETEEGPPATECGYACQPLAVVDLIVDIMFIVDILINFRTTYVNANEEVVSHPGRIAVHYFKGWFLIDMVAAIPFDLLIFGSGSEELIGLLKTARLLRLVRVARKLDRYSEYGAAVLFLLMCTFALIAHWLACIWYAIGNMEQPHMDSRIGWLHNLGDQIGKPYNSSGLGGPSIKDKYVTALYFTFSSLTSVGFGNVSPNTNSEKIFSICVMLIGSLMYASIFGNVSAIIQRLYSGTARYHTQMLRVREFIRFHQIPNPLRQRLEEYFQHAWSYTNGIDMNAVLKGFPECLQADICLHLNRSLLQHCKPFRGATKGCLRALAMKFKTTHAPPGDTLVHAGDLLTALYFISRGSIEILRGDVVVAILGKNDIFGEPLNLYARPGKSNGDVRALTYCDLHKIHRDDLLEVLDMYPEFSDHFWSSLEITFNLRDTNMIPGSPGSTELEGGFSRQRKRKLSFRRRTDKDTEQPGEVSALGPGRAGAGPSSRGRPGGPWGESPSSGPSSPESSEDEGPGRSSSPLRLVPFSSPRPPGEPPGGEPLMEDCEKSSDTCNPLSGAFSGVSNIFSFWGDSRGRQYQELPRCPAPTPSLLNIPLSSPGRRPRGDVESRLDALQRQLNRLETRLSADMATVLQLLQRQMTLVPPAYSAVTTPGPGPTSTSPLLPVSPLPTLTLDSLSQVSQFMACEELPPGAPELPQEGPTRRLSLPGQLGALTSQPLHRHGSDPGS
- procedureSummary: primary screen, population patch clamp on CHO cells stably expressing hERG; higher = less effect of the substance
In all, about 310,000 compounds went through this assay and about 2,200 (0.71%) showed an effect of 50% or more. Effects have a minus sign here. The sample as a whole holds a higher share of strong results than the screen did.
observedProperty: hERG current change (%, negative = inhibition) at 1uM (%)
Value expressed in %; do not type the unit.

Prompt: API: value(readout=hERG current change (%, negative = inhibition) at 1uM, system=human ether-à-go-go-related gene (hERG) potassium channel (human)) for record `O=C(O)c1ccccc1NS(=O)(=O)c1ccccc1C(F)(F)F`
Response: 5.14

Prompt: Provide value of hERG current change (%, negative = inhibition) at 1uM for this record tested with human ether-à-go-go-related gene (hERG) potassium channel (human): `Brc1cccc(CNc2nc3ccccc3n2CCN2CCCCC2)c1`
Response: -0.507

Prompt: Hi! What's the reported hERG current change (%, negative = inhibition) at 1uM for `CCN(CC)c1ccc(CNc2nc3ccccc3n2CCN2CCOCC2)cc1` on human ether-à-go-go-related gene (hERG) potassium channel (human)?
Response: -76.1

Prompt: Query hERG current change (%, negative = inhibition) at 1uM on human ether-à-go-go-related gene (hERG) potassium channel (human) for `Cc1cccc(NCc2nc3ccccc3n2Cc2ccccc2)c1`
Response: 12

Prompt: Given the entry `CCOCCCNC(=O)CN(Cc1ccc(Cl)cc1)S(C)(=O)=O` , what hERG current change (%, negative = inhibition) at 1uM was observed with human ether-à-go-go-related gene (hERG) potassium channel (human)?
Response: 8.42

Prompt: What measured hERG current change (%, negative = inhibition) at 1uM is associated with Cc1cc(N2C(=O)C(O)=C(C(=O)c3cccs3)C2c2ccc(F)cc2)no1 (stereo not shown) on human ether-à-go-go-related gene (hERG) potassium channel (human)?
Response: 14.8

Prompt: Requested read-out hERG current change (%, negative = inhibition) at 1uM, target or system human ether-à-go-go-related gene (hERG) potassium channel (human), entry `c1ccc(Cn2c(CNc3nc4ccccc4n3CCN3CCCCC3)nc3ccccc32)cc1`
Response: -5.91

Prompt: Hi! What's the reported hERG current change (%, negative = inhibition) at 1uM for `CCn1cnc2cc(NCc3nc4ccccc4n3Cc3ccccc3)ccc21` on human ether-à-go-go-related gene (hERG) potassium channel (human)?
Response: -15.2

Prompt: Record lookup: for human ether-à-go-go-related gene (hERG) potassium channel (human), what hERG current change (%, negative = inhibition) at 1uM belongs to `CCN(CC)c1ccc(CNc2nc3ccccc3n2CCN2CCCCC2)cc1` ?
Response: -18

Prompt: Recorded hERG current change (%, negative = inhibition) at 1uM for `Brc1cccc(CNc2nc3ccccc3n2CCN2CCOCC2)c1` with human ether-à-go-go-related gene (hERG) potassium channel (human), please?
Response: -56.7
